The reported measurements were obtained from paper PMC11927390.

- measurement target: T1, Fc-tagged human NKG2D (human, UniProt P26718 73-216)
- T1 chain: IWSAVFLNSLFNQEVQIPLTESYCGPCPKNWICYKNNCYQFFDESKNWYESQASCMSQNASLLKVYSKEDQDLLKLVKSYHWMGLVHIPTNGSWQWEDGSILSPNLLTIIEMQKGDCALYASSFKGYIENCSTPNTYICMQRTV
- assay summary: SPR
readout name: Kd
Quote the value and follow it with the unit of measurement.

I am curious: what Kd value has been reported for human ULBP6-01 (residues G26-G218) (ligand) GRDDPHSLCYDITVIPKFRPGPRWCAVQGQVDEKTFLHYDCGNKTVTPVSPLGKKLNVTTAWKAQNPVLREVVDILTEQLRDIQLENYTPKEPLTLQARMSCEQKAEGHSSGSWQFSIDGQIFLLFDSEKRMWTTVHPGARKMKEKWENDKDVAMSFHYISMGDCIGWLEDFLMGMDSTLEPSAGAPLAMSSG ? 42.7 nM

I am curious: what Kd value has been reported for human ULBP5 (ligand) GLADPHSLCYDITVIPKFRPGPRWCAVQGQVDEKTFLHYDCGSKTVTPVSPLGKKLNVTTAWKAQNPVLREVVDILTEQLLDIQLENYIPKEPLTLQARMSCEQKAEGHGSGSWQLSFDGQIFLLFDSENRMWTTVHPGARKMKEKWENDKDMTMSFHYISMGDCTGWLEDFLMGMDSTLEPSAGAPPTMSSG ? 93.4 nM

I am curious: what Kd value has been reported for human MICA (MHC class I polypeptide-related sequence A), soluble recombinant (ligand) EPHSLRYNLTVLSWDGSVQSGFLTEVHLDGQPFLRCDRQKCRAKPQGQWAEDVLGNKTWDRETRDLTGNGKDLRMTLAHIKDQKEGLHSLQEIRVCEIHEDNSTRSSQHFYYDGELFLSQNLETKEWTMPQSSRAQTLAMNVRNFLKEDAMKTKTHYHAMHADCLQELRRYLKSGVVLRRTVPPMVNVTRSEASEGNITVTCRASGFYPWNITLSWRQDGVSLSHDTQQWGDVLPDGNGTYQTWVATRICQGEEQRFTCYMEHSGNHSTHPVPSGKVLVLQSHW ? 83.2 nM

I am curious: what Kd value has been reported for human ULBP6-02 extracellular domain (residues R26-G218) (ligand, glycosylation of residues N68 and N82 (in the crystal structure)) RRDDPHSLCYDITVIPKFRPGPRWCAVQGQVDEKTFLHYDCGNKTVTPVSPLGKKLNVTMAWKAQNPVLREVVDILTEQLLDIQLENYTPKEPLTLQARMSCEQKAEGHSSGSWQFSIDGQTFLLFDSEKRMWTTVHPGARKMKEKWENDKDVAMSFHYISMGDCIGWLEDFLMGMDSTLEPSAGAPLAMSSG ? 2.69 nM

I am curious: what Kd value has been reported for human ULBP2 (ligand) GRADPHSLCYDITVIPKFRPGPRWCAVQGQVDEKTFLHYDCGNKTVTPVSPLGKKLNVTTAWKAQNPVLREVVDILTEQLRDIQLENYTPKEPLTLQARMSCEQKAEGHSSGSWQFSFDGQIFLLFDSEKRMWTTVHPGARKMKEKWENDKVVAMSFHYFSMGDCIGWLEDFLMGMDSTLEPSAGAPLAMSS ? 262 nM

I am curious: what Kd value has been reported for human ULBP3 (ligand) DAHSLWYNFTIIHLPRHGQQWCEVQSQVDQKNFLSYDCGSDKVLSMGHLEEQLYATDAWGKQLEMLREVGQRLRLELADTELEDFTPSGPLTLQVRMSCECEADGYIRGSWQFSFDGRKFLLFDSNNRKWTVVHAGARRMKEKWEKDSGLTTFFKMVSMRDCKSWLRDFLMHRKKRLEPTAPPTMAPG ? 836 nM

I am curious: what Kd value has been reported for human ULBP1 (ligand) GWVDTHCLCYDFIITPKSRPEPQWCEVQGLVDERPFLHYDCVNHKAKAFASLGKKVNVTKTWEEQTETLRDVVDFLKGQLLDIQVENLIPIEPLTLQARMSCEHEAHGHGRGSWQFLFNGQKFLLFDSNNRKWTALHPGAKKMTEKWEKNRDVTMFFQKISLGDCKMWLEEFLMYWEQMLDPTKPPSLAPG ? 138 nM
